Data origin: the supplement of paper PMC10567573

B1: MYL5 (parent)
chain: DVAGNLDYKALSYVITHGEEKEE

Variants of: B1
Assay: protein stability index of a GFP-peptide fusion (GPS, HEK-293T) (PSI 1-6); higher = more stable;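 note: lentivirally expressed fusions sorted by FACS into six bins by GFP to DsRed ratio, PSI derived from sequencing read proportions per bin multiplied by bin number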
Details: c terminus: native
Each entry falls in a class defined on protein stability index; the bands are bin 0 (below 2), bin 1 (2 to below 3), bin 2 (3 or more)

DVAGNLDYAALSYVITHGEEKEE [K9A] | bin 1

Which bin, given its protein stability index, does DVAGNLDYKALGYVITHGEEKEE [S12G] occupy? bin 1

Which bin, given its protein stability index, does DVAGNLDYKALSYVITHGEEKEM [E23M] occupy? bin 1

Which bin, given its protein stability index, does DVAGNLDYKALSYVITHGEEKYE [E22Y] occupy? bin 2

Which bin, given its protein stability index, does DVAGNLDYFALSYVITHGEEKEE [K9F] occupy? bin 1

Which bin, given its protein stability index, does DVAGNLDYKALSYVITHGEEKCE [E22C] occupy? bin 2

Which bin, given its protein stability index, does DVAGRLDYKALSYVITHGEEKEE [N5R] occupy? bin 0

Which bin, given its protein stability index, does DVAGNLDYKALSYVITHGEEQEE [K21Q] occupy? bin 2

Which bin, given its protein stability index, does DVAGNLTYKALSYVITHGEEKEE [D7T] occupy? bin 0

Which bin, given its protein stability index, does DHAGNLDYKALSYVITHGEEKEE [V2H] occupy? bin 0
